Reference for the values: ChEMBL document CHEMBL1799954

System: MCF7
assayText: Cytotoxicity against human MCF7 cells after 48 hrs by MTT method
Assay type: functional, cell-based
assayConditions: MCF7, 48 h
Would you mind telling me the reported pIC50 of each entry?
Scale: pIC50 equals -log10([C]), with [C] in mol/L.

Measured pIC50, COC[C@H]1C(=O)[C@]23[C@H](O)[C@H]1CC[C@H]2[C@@]12CO[C@]3(O)[C@@H](O)[C@@H]1C(C)(C)CC[C@@H]2OC(C)=O : 5.22

pIC50 reported for this compound C=C1C(=O)[C@@]23[C@@H]4O[C@H]5O[C@@]2(O)[C@@H](O)[C@@H]2C(C)(C)CCC[C@]52[C@@H]3[C@@H](O)C[C@@H]14 : 4.57

Sure, the documented pIC50 for C=C1C(=O)[C@]23C[C@H]1C[C@@H](OC(C)=O)[C@H]2[C@]12CCCC(C)(C)[C@H]1[C@H](O)[C@@]3(O)OC2 is 5.72

According to the records, this compound C=C1C(=O)[C@@]23[C@@H]4O[C@H]5O[C@@]2(O)[C@@H](O)[C@@H]2C(C)(C)CCC[C@]52[C@@H]3CC[C@@H]14 displays pIC50 of 5.96

Given item C=C1C(=O)[C@]23C[C@H]1CC=C2[C@@]12CO[C@]3(O)[C@@H](O)[C@@H]1C(C)(C)CC[C@@H]2OC(C)=O , the value recorded as its pIC50 is 5.59

// field: pIC50; key: C=C1C(=O)[C@]23C[C@H]1CC[C@H]2[C@@]12CO[C@@]3(O)[C@@H](O)[C@@H]1C(C)(C)CC[C@@H]2OC(C)=O ; value = 6.15

----------
Tested on: SW480
assayText: Cytotoxicity against human SW480 cells after 48 hrs by MTT method
Assay type: functional, cell-based
assayConditions: SW480, 48 h
attributeMeasured: pIC50
# pIC50 is unitless: minus log10 of the molar concentration; print number only

pIC50 for COC[C@H]1C(=O)[C@]23[C@H](O)[C@H]1CC[C@H]2[C@@]12CO[C@]3(O)[C@@H](O)[C@@H]1C(C)(C)CC[C@@H]2OC(C)=O [LASIOKAURININ] is 5.31

response.value for C=C1C(=O)[C@]23[C@H](O)[C@H]1CC[C@H]2[C@@]12[C@H](O)O[C@]3(O)[C@@H](O)[C@@H]1C(C)(C)CC[C@@H]2OC(C)=O [XEROPHILUSIN J] (field: pIC50) = 5.57

For record C=C1C(=O)[C@]23[C@H](O)[C@H]1CC[C@H]2[C@@]12CO[C@@]3(O)[C@@H](O)[C@@H]1C(C)(C)CC[C@@H]2OC(C)=O [LASIOKAURIN] the listed pIC50 is 5.64

Documented pIC50 of C=C1C(=O)[C@]23C[C@H]1CC[C@H]2[C@@]12CO[C@@]3(O)[C@@H](O)[C@@H]1C(C)(C)CC[C@@H]2OC(C)=O [EFFUSANIN B] : 6.10

Measured pIC50, C=C1C(=O)[C@@]23[C@@H]4O[C@H]5O[C@@]2(O)[C@@H](O)[C@@H]2C(C)(C)CCC[C@]52[C@@H]3[C@@H](O)C[C@@H]14 [MACROCALIN B] : 4.96

----------
Test system: SW480
assayText: Cytotoxicity against human SW480 cells after 48 hrs by MTT method
Format: functional, cell-based
assayConditions: SW480, 48 h
attributeMeasured: IC50 (µM)
Give a bare numeral; the unit µM is implied.

So for C=C1C(=O)[C@]23C[C@H]1CC=C2[C@@]12CO[C@]3(O)[C@@H](O)[C@@H]1C(C)(C)CC[C@@H]2OC(C)=O [ISOADENOLIN I] , the logged IC50 turned out to be 3.1

Form: compound = C=C1C(=O)[C@@]23[C@@H]4O[C@H]5O[C@@]2(O)[C@@H](O)[C@@H]2C(C)(C)CCC[C@]52[C@@H]3CC[C@@H]14 [XEROPHILUSIN B] ; IC50 = 0.9
